Below is a list of entries, each paired with its recorded MIC value.
Tested on: ASAU001 (laboratory strain of S. aureus, ATCC29213)
Assay: MIC broth microdilution, ASAU001
Format: cell-based
Settings: Staphylococcus aureus, ATCC29213, read-out: MIC ASAU001

Illustrative cases are given below, each with its answer.
> print(dat)
                                   molecule                              assay.target  endpoint.result
1  CC(C)(O)[C@H](NC(=O)c1ccc(C#CC#Cc2cccnc2)cc1)C(=O)NO  ASAU001 (laboratory strain of S. aureus, ATCC29213)   16 to 64 µg/mL
2  NC[C@H](NC(=O)c1ccc(/C=C/C#Cc2ccc(CNC3CC3)cc2)cc1)C(=O)NO  ASAU001 (laboratory strain of S. aureus, ATCC29213)       > 64 µg/mL
3  CO[C@H](C)[C@H](NC(=O)c1ccc(/C=C/C#Cc2ccc(CO)cc2)cc1)C(=O)NO  ASAU001 (laboratory strain of S. aureus, ATCC29213)   16 to 64 µg/mL

## Input Please state recorded MIC (tested on ASAU001 (laboratory strain of S. aureus, ATCC29213)) of CC(C)(O)[C@H](NC(=O)c1ccc(C#Cc2ccncc2)cc1)C(=O)NO
## Output 16 to 64 µg/mL

## Input Now consider C[C@@H](N)[C@H](NC(=O)c1ccc(C#CC#CC2CC2)cc1)C(=O)NO and answer again.
## Output 2 to 16 µg/mL

## Input Now consider C[C@@H](N)[C@H](NC(=O)c1ccc(C#Cc2ccc(CN3CCC(O)C3)cc2)cc1)C(=O)NO (some centres unmarked) and answer again.
## Output > 64 µg/mL

## Input Now consider C[C@@H](O)[C@H](NC(=O)c1ccc(/C=C/C#Cc2ccc(CNC3CC3)cc2)cc1)C(=O)NO and answer again.
## Output > 64 µg/mL

## Input Now consider C[C@@H](N)[C@H](NC(=O)c1ccc(C#Cc2ccc(CCO)cc2)cc1)C(=O)NO and answer again.
## Output > 64 µg/mL
